The origin of these recorded values is ChEMBL document CHEMBL1154222.

test system: HeLa; assay: Cytotoxicity against human HeLa cells; type: functional, cell-based
Give pIC50 for every item shown.
Give bare numbers, as −log10 of the molar value.

[[record]]
compound = "CCCCCCCCCCC(=O)/C=C/CCCOC[C@@H](O)CO [CERATODICTYOL A]"
experimental_result = 4.17


Shifting focus to the compound that follows.
Record CCCCCCCCC/C=C/C(=O)CCCCOC[C@@H](O)CO [CERATODICTYOL B] . Reported pIC50: 4.17
